Record form. Attribute: melting point. Fill in for each entry.

The examples below pair each entry with its known result.
CCOC(=O)CCc1ccc(CCN2CCN(S(=O)(=O)c3ccccc3)CC2)cc1; 114 to 116 °C
COP(=O)(NC1C(=O)N2C(C(=O)OCc3ccc([N+](=O)[O-])cc3)=C(C=CN(C)C)CSC12)OC (configuration not stated); 236 to 237 °C
C=Cc1ccccc1N1CCCCC1; 147 to 150 °C
Cc1c(SCCCn2ccnc2)ccnc1CSc1ccncc1; 117 to 119 °C

Respectfully, I request melting point for each entry included below.
1. COCOc1ccc(CCCOc2nn(Cc3ccccc3)cc2CC(=O)O)c(Oc2ncc(C(F)(F)F)cc2Cl)c1
2. COC(=O)c1ccc2oc(-c3cc(C)ccc3OC)cc(=O)c2c1

Result:
1: 108 to 109 °C; 2: 154 to 156 °C

Dear colleague, could you please provide melting point for the compounds listed below?
1. CS(=O)(=O)c1ccc(-c2cnn(CC(F)(F)F)c(=O)c2-c2ccc(F)c(Cl)c2)cc1
2. CCCCC1CCCc2oc(C(=N)N)cc21 (configuration not stated)
3. CS(=O)(=O)c1ccc(C(=O)C2=C(O)C3CCC(C3)C2=O)c([N+](=O)[O-])c1 (configuration not stated)
4. N#Cc1cnn(-c2nc(Cl)c(C(F)(F)F)cc2Cl)c1N
5. CCN(CC)CCN1C(=O)C(NC(=O)c2ccccc2)C(C)(C)SC1=S (configuration not stated)

Result:
165 to 166 °C
243 to 245 °C
170 °C
168 to 171 °C
152 to 153 °C

Your task in this section: give melting point for each listed record.
1. CCc1nc(/C=C/c2cn(-c3ccccc3)nc2OCc2cc(OCc3nc(-c4ccc(CC(=O)O)cc4)oc3C)no2)cs1
2. Cc1cc(F)ccc1-c1ccc(S(=O)(=O)N2c3ccccc3CC2C(=O)NCc2ccc(CC(=O)O)cc2)cc1 (configuration not stated)
3. COc1cccc(C(=N)NN2CCc3ccccc3C2=O)c1
4. COC(=O)c1ccccc1S(=O)(=O)NC(=O)Nc1nc(C)c2ccccc2n1

Result:
1: 156 to 158 °C; 2: 95 to 100 °C; 3: 176 to 177 °C; 4: 182 to 183 °C

Can you give me melting point for all of these, one by one?
1. Brc1cn2cncc2s1
2. CC(C)C(Br)C(=O)NCC(=O)O (configuration not stated)
3. Clc1cccc(CSc2ccncc2)c1
4. N#CCCNC(=O)c1cccc(-c2ccc3ccn(-c4ccc(Cl)cc4Cl)c3n2)c1
5. CCCCc1nn(-c2cccc(N)c2)c(=O)n1Cc1ccc(-c2ccccc2S(=O)(=O)NC(=O)c2ccccc2Cl)cc1
6. Cc1ccc(NS(=O)(=O)c2ccccc2)cc1NC(=O)Cc1ccc(C#N)cc1

Result:
1. 77 to 78 °C
2. 138 to 139 °C
3. 222 to 224 °C
4. 215 to 216 °C
5. 137 to 139 °C
6. 120 to 122 °C

Consider the following items and state reported melting point for each.
1. CN(c1nc2ccccc2c(=O)o1)c1ccccc1I
2. Cc1cccc2cc(C(=O)Cn3ccnc3)ccc12
3. Cc1c(C)n(CC(F)F)c2c(OCc3ccccc3)nncc12
4. FC(F)(F)c1cc(-c2ccccc2)nc(N2CCNCC2)n1
5. CCCCOCCOc1ccc(-c2ccc3c(c2)C=C(C(=O)O)CCN3CC2CCC2)cc1
6. CS(=O)(=O)c1ccc(-c2ccccc2Cc2cccc(F)c2)cc1
7. Nc1nc(NCCO)nc(N2CCOCC2)n1

Result:
["144 to 148 °C", "264 °C", "128 to 131 °C", "130 °C", "110 to 112 °C", "97 to 98 °C", "159 to 161 °C"]

Would you mind listing melting point for each of the following compounds?
1. Cc1cnc(N2CCC(c3ccc(N)cc3)CC2)n1C
2. CN1OCC/C(=C\c2nc(C(C)(C)C)c(O)c(C(C)(C)C)n2)C1=O
3. CCc1cccc2ccc(C=O)c(OCOC)c12
4. COc1cc(C=O)ccc1OCc1coc(-c2ccccc2)n1
5. CCCCCCCCCCOCCCN=C=O

Result:
1. 219 to 220 °C
2. 180 to 181 °C
3. 41.5 to 42.5 °C
4. 119 to 120 °C
5. 78 to 82 °C

List melting point for every entry below, keeping the order given.
1. CCc1cc(Cl)cnc1N
2. O=c1c(Cc2ccncc2)c(-c2ccc(F)cc2)[nH]c2ccccc12

Result:
["67 to 68 °C", "144 to 146 °C"]

Batch of 2 compounds: report melting point for each.
1. Cc1cc(Cl)cc(C(=O)NC(C)C)c1NC(=O)c1cc(C(F)(F)F)nn1-c1ncccc1Cl
2. O=c1[nH]c2ccc(Cl)cc2c(=O)o1

Result:
["195 to 196 °C", "200 °C"]
